Test system: MCF7
Assay: Cytotoxicity against human MCF7 cells after 3 days by resazurin microplate assay
Assay type: functional, cell-based
Conditions: Homo sapiens, MCF7, 72 h; read-out: IC50
pIC50: −log10 of the molar value.
reported metric: pIC50

chem smiles	assayed target	assay result
COc1ccc(O)c(C(=O)NCC(C)(C)CC2=C(O)C(=O)c3ccccc3C2=O)c1	MCF7	4.40
COc1c(C(=O)NCC(C)(C)CC2=C(O)C(=O)c3ccccc3C2=O)ccc2ccccc12	MCF7	4.40
COc1cc(C(=O)NCC(C)(C)CC2=C(O)C(=O)c3ccccc3C2=O)c(O)c2ccccc12	MCF7	4.45
COC1=C(CC(C)(C)CNC(=O)c2cc(OC)ccc2OC)C(=O)c2ccccc2C1=O	MCF7	4.24
